# TEST: Quantitative High-Throughput drug screen in 47 multiple myeloma cell lines against the NCATS MIPE library collection: XG1_PLB cell viability assay (AID 1919866); further: nearly all actives have a fitted effect of over 35% in size
# RECORDED CONDITIONS: CellTiter-Glo ATP, 48 h; series mostly up to 45.8 µM
Inconclusive results are not listed. Active and inactive are the calls of the source. The call rests on the fitted dose curve; in most records, active means well fitted cell-killing curve with a large enough effect; inconclusive means small, poorly fitted or top-dose-only effect, or effect the other way; inactive means no such curve, though single readings can be large or run the other way.
Outcomes: 1.0 (active), 0.0 (inactive)

>>> df
                                    compound  category_label
 0  COC(=O)[C@]12CCC(C)(C)C[C@@H]1[C@@H]1C(=O)C=C3[C@@]4(C)C=C(C#N)C(=O)C(C)(C)[C@@H]4CC[C@@]3(C)[C@]1(C)CC2             1.0
 1  O=C(C=Cc1c(C(=O)O)[nH]c2cc(Cl)cc(Cl)c12)Nc1ccccc1             0.0
 2  N#Cc1c(O)c2c(-c3ccc(-c4ccccc4O)cc3)csc2[nH]c1=O             0.0
 3  Cc1cnc(Nc2ccc(F)cc2Cl)nc1-c1c[nH]c(C(=O)N[C@H](CO)c2cccc(Cl)c2)c1             1.0
 4  COc1ccc2c(c1)CC[C@@H](CN(C)CC(=O)O)[C@H]2c1ccccc1             1.0
 5  NC(=O)Nc1cc(-c2cccc(F)c2)sc1C(=O)N[C@H]1CCCNC1             1.0
 6  Cc1ccc(C(=O)Nc2ccc(CN3CCN(C)CC3)c(C(F)(F)F)c2)cc1C#Cc1cnc2cccnn12             1.0
 7  COc1cccc(Nc2c(C(N)=O)cnc3c(C)cc(S(=O)(=O)c4cccc(C(=O)N(C)C)c4)cc23)c1             0.0
 8           Clc1cccc(-c2nnnn2Cc2cccnc2)c1Cl             1.0
 9  CCN1CCN(CC(=O)Nc2ccc(-c3cccc4c(=O)cc(N5CCOCC5)oc34)c3sc4ccccc4c23)CC1             1.0
10  Nc1ncnc2c1c(-c1cnc3[nH]ccc3c1)nn2C1CCCC1             1.0
11  C1=CCOCc2cc(ccc2OCCN2CCCC2)Nc2nccc(n2)-c2cccc(c2)OCC1             1.0
12    O=C(C=Cc1cccc(S(=O)(=O)Nc2ccccc2)c1)NO             1.0
13  Fc1cc(-c2cccc3ncc(-c4cnn(C5CCNCC5)c4)nc23)cc(F)c1CN1CCOCC1             1.0
14  CCOc1cc2ncc(C#N)c(Nc3ccc(F)c(Cl)c3)c2cc1NC(=O)C=CCN(C)C             1.0
15  Cc1cc(Nc2cc(N3CCN(C)CC3)nc(Sc3ccc(NC(=O)C4CC4)cc3)n2)n[nH]1             1.0
16  Cc1cc(Nc2cc(N3CCN(C)CC3)nc(C=Cc3ccccc3)n2)n[nH]1             1.0
17  COc1cc2c(Oc3ccc(-c4cnc(Nc5ccc(F)cc5)n(C)c4=O)cc3F)ccnc2cc1OCCCN1CCOCC1             1.0
18  O=C(c1ccc(Nc2nccc(-c3cc4ccccc4s3)n2)cc1)N1CCC(N2CCCC2)CC1             1.0
19  Nc1nc(Nc2ccc(S(N)(=O)=O)cc2)nn1C(=O)c1c(F)cccc1F             1.0
20  CC(O)C1C(=O)N2C(C(=O)O)=C(SC3CNC(C(=O)N(C)C)C3)C(C)C12 (stereo not drawn)             0.0
21  CN(C)c1nc(Cc2ccc(NC(=O)c3ccc4ccccc4c3)cc2)nc(Cl)c1CC(=O)O             0.0
22  CC1(C)O[C@@H]2C[C@@H]3[C@H]4C[C@@H](F)C5=CC(=O)C=C[C@]5(C)[C@@]4(F)[C@@H](O)C[C@]3(C)[C@]2(C(=O)CO)O1             0.0
23  CCC(=C(c1ccccc1)c1ccc(OCCN(C)C)cc1)c1ccccc1             1.0
24  CNC(=O)CN1CCC(Oc2cc3c(Nc4cccc(Cl)c4F)ncnc3cc2OC)CC1             1.0
25  Cc1cc(N2CCOCC2)cc2[nH]c(-c3c(NC[C@@H](O)c4cccc(Cl)c4)cc[nH]c3=O)nc12             1.0
26  CC[C@H](CO)Nc1nc(NCc2ccccc2)c2ncn(C(C)C)c2n1             1.0
27  COCCOc1ccc2c(c1)ncn2-c1ccc2cccc(N3CCC(N)CC3)c2n1             1.0
28  CC(C)c1cc(C(=O)N2Cc3ccc(CN4CCN(C)CC4)cc3C2)c(O)cc1O             1.0
29  Cc1c(NC(=O)OC[C@@H]2COCCN2)cn2ncnc(Nc3ccc4c(cnn4Cc4cccc(F)c4)c3)c12             1.0
30  Cc1cccc(C=NNc2cc(N3CCOCC3)nc(OCCc3ccccn3)n2)c1             1.0
31  Cc1cn2c(-c3cn[nH]c3)cnc2c(Nc2ccc(C(=O)N3CCNCC3)cc2F)n1             1.0
32             Nc1ccc(S(=O)(=O)Nc2ncccn2)cc1             0.0
33  Cc1c(Cn2c(C)nc3c(C(=O)O)cc(N4CCOCC4)cc32)cccc1C(F)(F)F             1.0
34  COc1cc(OC2CCN(C)CC2)ccc1Nc1ncc2c(n1)n(C1CCCC1)c(=O)n2C             1.0
35  COc1ccc(OC)c(-c2nnc3ccc(-c4ccc(OC)c(O[C@@H]5CCOC5)c4)nn23)c1             1.0
36  NC(=O)c1c(OCc2c(F)cc(Br)cc2F)nsc1NC(=O)NCCCCN1CCCC1             1.0
37  COc1cc(C)c(Sc2cnc(NC(=O)c3ccc(CNC(C)C(C)C)cc3)s2)cc1C(=O)N1CCN(C(C)=O)CC1 (stereo not drawn)             1.0

Taken from PubChem BioAssay (NCATS).
